Values from patent US20180086804A1

target: T1, HLA-DP401 (HLA-DPB1*04:01) (human, UniProt P20036 29-222); assay: competition ELISA vs biotin-Oxy 271-287;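 note: plates incubated 24–72 h, maximum binding defined by wells lacking competitor, background by wells lacking HLA molecule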
T1 construct: mature; purified from homozygous EBV-transformed lymphoblastoid cells with antibody B7/21
T1 sequence (P20036 29-222 limits assumed, chain 1 of 3, other chains not shown): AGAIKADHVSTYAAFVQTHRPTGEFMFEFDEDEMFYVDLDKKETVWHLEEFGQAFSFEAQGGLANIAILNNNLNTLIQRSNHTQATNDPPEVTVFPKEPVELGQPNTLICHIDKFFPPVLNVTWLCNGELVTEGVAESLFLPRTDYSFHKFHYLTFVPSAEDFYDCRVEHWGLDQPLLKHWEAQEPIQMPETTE
No end group written: not given here.
Param threshold (40) applies to relative affinity; output criterion met when value >= threshold, criterion not met when value < threshold.

Before answering, review these 3 worked examples.
- binder: "FRLLQETMYMTVSII-NH2 [CCNB1 216-230]"
  class_label: "criterion not met"
- binder: "SQIAAGAFCLALKIL-NH2 [CCNB1 342-356]"
  class_label: "criterion met"
- binder: "RAILIDWLVQVQMKF-NH2 [CCNB1 202-216]"
  class_label: "criterion met"

Test whether the binder LQLVGVTAMFIASKY-NH2 [CCNB1 244-258] records relative affinity of 40 or higher.
criterion met

Test whether the binder VQMKFRLLQETMYMT-NH2 [CCNB1 212-226] records relative affinity of 40 or higher.
criterion met

Test whether the binder PTLQHYLSYTEESLL-NH2 [CCNB1 363-377] records relative affinity of 40 or higher.
criterion not met

Test whether the binder ETMYMTVSIIDRFMQ-NH2 [CCNB1 221-235] records relative affinity of 40 or higher.
criterion met

Test whether the binder GNMRAILIDWLVQVQ-NH2 [CCNB1 199-213] records relative affinity of 40 or higher.
criterion not met

Test whether the binder KKMLQLVGVTAMFIA-NH2 [CCNB1 241-255] records relative affinity of 40 or higher.
criterion met

Test whether the binder QHYLSYTEESLLPVM-NH2 [CCNB1 366-380] records relative affinity of 40 or higher.
criterion not met

Test whether the binder TAMFIASKYEEMYPP-NH2 [CCNB1 250-264] records relative affinity of 40 or higher.
criterion not met

Test whether the binder MTVSIIDRFMQNNCV-NH2 [CCNB1 225-239] records relative affinity of 40 or higher.
criterion met
